Measured EC50 of individual entries
System: HCV replicon cells
Test: HCV replicon FRET / luciferase assay (96-well plates)
Assay type: cell-based
Conditions: Hepatitis C virus, Table 1a; HCV replicon; read-out: EC50
From the text: FRET Assay Preparation. To perform the HCV FRET screening assay, 96-well cell culture plates were used. The FRET peptide (Anaspec, Inc.) (Taliani et al., Anal. Biochem. 1996, 240, 60-67) contains a fluorescence donor, EDANS, near one end of the peptide and an acceptor, DABCYL, near the other end. […] Assays. […] The plate was then placed into the Cytoflour 4000 instrument which had been set to 340 excite/490 emission, automatic mode for 20 cycles and the plate read in a kinetic mode. […]

Hello, please tell me recorded EC50 for this one: "CNC(=O)c1c(-c2ccc(F)cc2)oc2ccc(-c3cccc(C(=O)N[C@H](CO)C(=O)OC)c3)cc12"
1 to 10 µM

Give the measured EC50 for "CNC(=O)c1c(-c2ccc(F)cc2)oc2ccc(-c3cnc(OC)c(F)c3)cc12"
1 to 10 µM

Determine its reported EC50: "CNC(=O)c1c(-c2ccc(F)cc2)oc2ccc(-c3cccc(C(N)=O)c3)cc12"
> 3.7 µM

Specify EC50 for "CNC(=O)c1ccc(-c2ccc3oc(-c4ccc(F)cc4)c(C(=O)NC)c3c2)cc1" and stop.
> 3.7 µM

For the molecule "CNC(=O)c1c(-c2ccc(F)cc2)oc2ccc(-c3cccc(C(=O)N[C@H]4CCC[C@H]4C(N)=O)c3)cc12" , give its measured EC50 value.
0.25 to 1 µM

Input "CNC(=O)c1c(-c2ccc(F)cc2)oc2ccc(Oc3ccc(/C=C(\NC(=O)c4ccccc4)C(=O)OC)cc3)cc12" , output reported EC50.
1 to 10 µM

Specify measured EC50 for "CNC(=O)c1c(-c2ccc(F)cc2)oc2ccc(OCCOc3ccc(C(C)(C)C)cc3)cc12" .
1 to 10 µM

Look up and report measured EC50 for this entry: "CNC(=O)c1c(-c2ccc(F)cc2)oc2ccc(-c3cccc(C(=O)NCC(N)=O)c3)cc12"
> 10 µM

// Input: "CNC(=O)c1c(-c2ccc(F)cc2)oc2ccc(-c3cccc(C(=O)N4CCCCC4)c3)cc12" . Output its EC50 only.
1 to 10 µM
